systemTested: ASCT2 (Homo sapiens (Human))
Sequence (Q15758 whole entry): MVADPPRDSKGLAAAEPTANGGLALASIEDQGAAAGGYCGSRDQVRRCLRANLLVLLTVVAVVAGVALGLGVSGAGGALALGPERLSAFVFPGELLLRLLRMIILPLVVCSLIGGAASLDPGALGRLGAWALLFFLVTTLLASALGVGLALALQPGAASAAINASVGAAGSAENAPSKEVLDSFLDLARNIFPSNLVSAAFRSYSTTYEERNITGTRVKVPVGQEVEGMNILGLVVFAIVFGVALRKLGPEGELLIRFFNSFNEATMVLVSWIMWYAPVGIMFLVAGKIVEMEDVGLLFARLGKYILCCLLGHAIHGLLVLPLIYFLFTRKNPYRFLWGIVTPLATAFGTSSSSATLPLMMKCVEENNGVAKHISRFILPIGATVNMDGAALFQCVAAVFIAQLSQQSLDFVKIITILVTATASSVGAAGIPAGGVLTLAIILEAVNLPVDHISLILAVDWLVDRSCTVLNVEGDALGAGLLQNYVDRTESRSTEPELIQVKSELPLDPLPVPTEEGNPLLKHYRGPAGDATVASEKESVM
experimentNotes: 3H-glutamine uptake inhibition in live HEK-293 cells
experimentalContext: inhibition of 3H-glutamine (500 nM) uptake, HEK293 cells, 15 min at 37° C., pH 6.0
Protocol: Initial compound libraries focused on 2, 3, and 4 substituted Nγ-glutamylanilides with aryl, alicyclic, and heterocyclic substitutions. […] The glutamine uptake assays in HEK293 cells were carried out in 96 well plates (CulturPlate-96, Perkin Elmer). […] 150 uL of scintillation fluid (Microscint 40, Perkin Elmer) is added and the plates are counted on a scintillation counter (Topcount, Perkin Elmer).
pIC50: −log10 of the molar value.
endpointLabel: pIC50

molecule	systemTested	endpointLabel	endpointValue
N[C@@H](CCC(=O)Nc1ccccc1-c1nc2ccccc2s1)C(=O)O	ASCT2 (Homo sapiens (Human))	pIC50	3.36
N[C@@H](CCC(=O)Nc1ccc([N+](=O)[O-])cc1)C(=O)O [Compound 1, L-γ-glutamyl-p-nitroanilide, reference compound]	ASCT2 (Homo sapiens (Human))	pIC50	3.02
N[C@@H](CCC(=O)Nc1ccccc1CCc1ccncc1)C(=O)O	ASCT2 (Homo sapiens (Human))	pIC50	3.08
N[C@@H](CCC(=O)NCc1ccccc1CS(=O)(=O)N1CCOCC1)C(=O)O	ASCT2 (Homo sapiens (Human))	pIC50	3.17
N[C@@H](CCC(=O)Nc1ccccc1N1CCCCC1)C(=O)O	ASCT2 (Homo sapiens (Human))	pIC50	3.11
CN1CCN(Cc2ccccc2CNC(=O)CC[C@H](N)C(=O)O)CC1	ASCT2 (Homo sapiens (Human))	pIC50	3.16
